Biological target: T1, human CD26-derived 13 mer peptide 119 (human)
T1 peptide: SIQITAPASMLIG
Assay: peptide microarray
VALUE KIND: Mean Signal Value
Reply briefly: the number, and no unit.

### Prompt Which Mean Signal Value value is on record for rhuMAb 409 (antibody, human IgG1, V domains shown, CM03 VH and VL with human IgG1 heavy chain constant region and human kappa constant region; also called X409) VH: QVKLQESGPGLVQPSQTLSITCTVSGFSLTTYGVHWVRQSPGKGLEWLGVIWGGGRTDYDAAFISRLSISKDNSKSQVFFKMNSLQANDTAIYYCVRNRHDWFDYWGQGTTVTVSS VL: DIQMTQSPSSLSASLGDRVTITCSASQGIRNSLNWYQQKPDGAVKLLIYYSSNLHSGVPSRFSGSGSGTDFSLTISNLEPEDIATYYCQQSIKLPFTFGSGTKLEIKR ?
### Response 0
